system: Mycobacterium tuberculosis; assay: Antitubercular activity against Mycobacterium tuberculosis H37Ra by alamar blue microplate assay; format: functional
I'd appreciate it if you marked entries T when MIC is lower than 50 mg/L and F when it is not.

Worked cases, answers included:
[[record]]
molecular_string = "CC(=O)O[C@H]1C[C@@H](OC(=O)c2ccccc2)/C(C)=C\\[C@H]2[C@@H](OC(=O)c3ccccc3)[C@@H](C)[C@H](O)[C@]2(OC(C)=O)[C@H](O)[C@@](C)(O)/C=C/C1(C)C"
assay_target = "Mycobacterium tuberculosis"
assigned_category = "T"

[[record]]
molecular_string = "CC(=O)O/C1=C(\\C)[C@@H](O)[C@H]2[C@@H](OC(=O)c3ccccc3)[C@@H](C)[C@H](O)[C@]2(OC(C)=O)[C@H](OC(C)=O)/C(C)=C/CC(C)(C)[C@@H](OC(C)=O)[C@H]1OC(C)=O"
assay_target = "Mycobacterium tuberculosis"
assigned_category = "F"

[[record]]
molecular_string = "CC(=O)O[C@H]1C[C@@H](O)/C(C)=C\\[C@H]2[C@@H](OC(=O)c3ccccc3)[C@@H](C)[C@H](O)[C@]2(OC(C)=O)[C@H](O)[C@@](C)(O)/C=C/C1(C)C"
assay_target = "Mycobacterium tuberculosis"
assigned_category = "F"

[[record]]
molecular_string = "NC[C@H]1O[C@H](O[C@H]2[C@H](O)[C@@H](O[C@H]3O[C@H](CO)[C@@H](O)[C@H](N)[C@H]3O)[C@H](N)C[C@@H]2N)[C@H](O)[C@@H](O)[C@@H]1O"
assay_target = "Mycobacterium tuberculosis"
assigned_category = "T"


Here is another compound to look at.
Q) Regarding NNC(=O)c1ccncc1 , kindly confirm whether its MIC is beneath 50 mg/L.
A) T

All figures here come from ChEMBL document CHEMBL1141288.
